test: phase I pharmacokinetics in blood (dried blood spot, LC-MS/MS, noncompartmental analysis); type: in vivo, human; conditions: human, whole blood (dried blood spot), intravenous, 260 mg/m2, 260 mg/m^2, cycle 1 Day 22, N = 2, mean, blood
observable: Cmax (ng/mL)
Please reply with the bare figure in ng/mL and do not write the unit itself.

State, in one line, measured Cmax of O=C(NCCN1CCOCC1)Nc1nc2ccc(Sc3nnc4ccc(-c5ccc(F)cc5)nn34)cc2s1 [SAR125844] 3550

---

assay: phase I pharmacokinetics in blood (dried blood spot, LC-MS/MS, noncompartmental analysis); assay type: in vivo, human; settings: human, whole blood (dried blood spot), intravenous, 440 mg/m2, 440 mg/m^2, cycle 1 Day 22, N = 3, mean ± SD; read-out: AUC0–168
observable: AUC(0-t) (ng·h/mL)
Please reply with the bare figure in ng·h/mL and do not write the unit itself.

State, in one line, measured AUC(0-t) of `O=C(NCCN1CCOCC1)Nc1nc2ccc(Sc3nnc4ccc(-c5ccc(F)cc5)nn34)cc2s1` 25300
